Where do these numbers come from? They come from patent US20070254831A1.

- Target system: T1, soluble human FcRn (human, UniProt P55899 24-297; P61769 21-119, biotinylated (Sulfo-NHS-LC-Biotin) in the ELISA; amine-coupled to CM5 chip in SPR)
- T1 construct: also called shFcRn; biotinylated shFcRn
- T1 sequence (P55899 24-297 limits assumed, chain 1 of 2): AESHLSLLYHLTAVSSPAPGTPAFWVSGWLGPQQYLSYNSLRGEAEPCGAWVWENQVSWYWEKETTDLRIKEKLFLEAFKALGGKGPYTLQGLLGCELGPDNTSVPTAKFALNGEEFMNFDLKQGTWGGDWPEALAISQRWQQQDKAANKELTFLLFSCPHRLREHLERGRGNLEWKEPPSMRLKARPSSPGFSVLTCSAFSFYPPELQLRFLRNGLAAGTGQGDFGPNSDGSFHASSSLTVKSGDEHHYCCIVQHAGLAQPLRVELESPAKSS
- T1 sequence (P61769 21-119 limits assumed, chain 2 of 2): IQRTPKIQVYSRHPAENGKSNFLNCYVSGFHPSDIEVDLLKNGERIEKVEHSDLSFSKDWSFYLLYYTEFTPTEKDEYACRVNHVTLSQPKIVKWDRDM
- Test description: ELISA, competitor human IgG
Friendly reminder: IC50 below 20 nM is MET, at or above is NOT MET.

Task: Criterion: IC50 strictly below 20 nM. Is it met by RFXTGHFGGLYPC (not fully specified; Pen at 3; Sar at 9; NMeLeu at 10; intrachain disulfide; C-termini joined on the two amines of a branching Lys, C-terminally linked dimer) [Peptide No. 280] ?
Output: NOT MET

Task: Criterion: IC50 strictly below 20 nM. Is it met by RFXTGHFGGLYPC (Pen at 3; Sar at 9; NMeLeu at 10; intrachain disulfide; C-terminal amide; N-termini joined by Bis-dPEG6 diacid linker, N-terminally linked dimer) [Peptide No. 279] ?
Output: MET

Task: Criterion: IC50 strictly below 20 nM. Is it met by QRFXTGHFGGLYPCNGP (Pen at 4; intrachain disulfide; C-terminal amide; N-termini joined by ethylene glycol-bis(succinic acid) linker, N-terminally linked dimer) [Peptide No. 201] ?
Output: NOT MET

Task: Criterion: IC50 strictly below 20 nM. Is it met by RFXTGHFGGLYPCGG (Pen at 3; Sar at 9; NMeLeu at 10; intrachain disulfide; C-termini joined on a branching Lys, C-terminally linked dimer) [Peptide No. 288] ?
Output: MET
